# target of assay: Beta5 (purified human constitutive proteasome) (Homo sapiens, UniProt P28074)
# assay info: Determination of Beta5 activity (fluorescence intensity assay, Suc-LLVY-AMC)
# Type: biochemical
# condition parameters: long incubation: 120 min at 25° C.; read-out: Beta5 IC50 (M) (long)
measurement name: IC50

Data request: Which IC50 value belongs to `O=C(N[C@@H](CC1CCCCC1)B(O)O)[C@@H]1C[C@H]2CC[C@@H]1O2` ?
Data returned: > 3e-05 M

---

# target of assay: LMP7 (purified human immuno proteasome) (Homo sapiens)
# assay info: Determination of LMP7 activity (fluorescence intensity assay, Suc-LLVY-AMC)
# Format: biochemical
# condition parameters: incubation for 20 minutes at 25° C.; concentrations 30 μM to 15 pM; read-out: LMP7 IC50
pIC50: −log10 of the molar value.
Measured pIC50 values are reported for all entries that follow.

Take a look at these entries with their results.
{"columns": ["molecule", "result"],
 "data": [
  ["Cc1cccc2c1OC[C@H]2C[C@H](NC(=O)[C@@H]1C[C@H]2CC[C@@H]1O2)B(O)O [compound 15]", "> 7.30"],
  ["O=C(N[C@@H](Cc1ccsc1)B(O)O)[C@@H]1C[C@H]2CC[C@@H]1O2 [compound 3]", "5.30 to 6.30"],
  ["O=C(N[C@@H](Cc1coc2ccccc12)B(O)O)C1C[C@H]2O[C@@H]1c1ccccc12 (stereo partly drawn) [compound 22]", "> 7.30"],
  ["O=C(N[C@@H](Cc1coc2c(Cl)cccc12)B(O)O)[C@@H]1C[C@H]2CC[C@@H]1O2 [Compound No. 13]", "> 7.30"],
  ["O=C(N[C@@H](Cc1coc2c(Cl)cccc12)B(O)O)[C@H]1C[C@@H]2CC[C@H]1O2 [compound 12]", "> 7.30"],
  ["Cc1cccc2c1OC[C@@H]2C[C@H](NC(=O)[C@@H]1C[C@H]2CC[C@@H]1O2)B(O)O [compound 14]", "5.30 to 6.30"],
  ["O=C(N[C@@H](C[C@@H]1COc2ccccc21)B(O)O)[C@H]1C[C@@H]2CC[C@H]1O2 [compound 2]", "6.30 to 7.30"],
  ["O=C(N[C@@H](C[C@@H]1COc2ccccc21)B(O)O)[C@@H]1C[C@H]2CC[C@@H]1O2 [Compound No. 1]", "> 7.30"]
]}

Kindly review the next molecule as well.
Data request: Which pIC50 is reported for this molecule? O=C(N[C@@H](Cc1coc2ccccc12)B(O)O)[C@@H]1C[C@H]2CC[C@@H]1O2 [Compound No. 9]
Data returned: > 7.30
